- Condition: 393.15 K; 101.33 kPa; Liquid; Vibrating tube method
Measured property: mass density (kg/m3)

{"columns": ["Compound", "mass density, kg/m3"],
 "data": [
  ["CCCCCCCCCCCC(=O)OC [methyl dodecanoate]", 790.34],
  ["CCCCCCCC(=O)OCC [ethyl octanoate]", 779.34],
  ["CCCCCCCC(=O)OC [methyl octanoate]", 787.36],
  ["CCCCCC(=O)OCC [ethyl hexanoate]", 774.87],
  ["CCCCCCC(=O)OC [methyl heptanoate]", 786.44],
  ["CCCCCC(=O)OC [methyl hexanoate]", 785.23],
  ["CCCCCCCCCCCCCC(=O)OCC [ethyl tetradecanoate]", 785.27],
  ["CCCCCCCCCCCCCC(=O)OC [methyl tetradecanoate]", 791.09],
  ["CCCCCCCCCCCC", 674.68],
  ["CCCCCCCCCC(=O)OCC [ethyl decanoate]", 781.97],
  ["CCCCCCCCCCCC(=O)OCC [ethyl dodecanoate]", 783.72],
  ["CCCCCCCCCC(=O)OC [methyl decanoate]", 789.29],
  ["CCCCCCC(=O)OCC [ethyl heptanoate]", 777.81]
]}

The measurements presented in this section are drawn from the NIST ThermoML archive (doi:10.1016/j.jct.2019.02.025).
